Entry source: patent US20160375006A1

target: GSK3β (Homo sapiens); conditions: GSK3β over GSK3α
Sequence (P49841 whole entry): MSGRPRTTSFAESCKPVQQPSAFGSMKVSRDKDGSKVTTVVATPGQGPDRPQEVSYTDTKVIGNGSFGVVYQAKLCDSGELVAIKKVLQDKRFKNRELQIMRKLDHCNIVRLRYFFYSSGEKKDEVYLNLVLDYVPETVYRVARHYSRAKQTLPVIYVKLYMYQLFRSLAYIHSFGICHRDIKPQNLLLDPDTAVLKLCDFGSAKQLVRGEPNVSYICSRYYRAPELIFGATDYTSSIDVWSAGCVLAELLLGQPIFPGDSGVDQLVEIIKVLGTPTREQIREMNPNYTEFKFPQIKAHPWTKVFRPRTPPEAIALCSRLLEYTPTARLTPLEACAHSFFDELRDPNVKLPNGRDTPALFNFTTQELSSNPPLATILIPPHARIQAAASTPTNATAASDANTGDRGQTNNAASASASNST
// classify: if (GSK3β fold selectivity < 3 fold) Satisfied else Not satisfied

Ask | Consider CC1(C)CC(=O)C2=C(C1)Nc1n[nH]c(C3CCC3)c1C2(C)c1ccccc1 (stereo not drawn) . Does its GSK3β fold selectivity lie strictly below 3 fold?
Reply | Satisfied

Ask | Consider Cc1[nH]nc2c1[C@](C)(c1cccc(C#N)c1)C1=C(CC(C)(C)CC1=O)N2 . Does its GSK3β fold selectivity lie strictly below 3 fold?
Reply | Satisfied

Ask | Consider Cc1[nH]nc2c1C1(CCc3ccccc31)C1=C(CC(C)(C)CC1=O)N2 (stereo not drawn) . Does its GSK3β fold selectivity lie strictly below 3 fold?
Reply | Satisfied

Ask | Consider Cc1[nH]nc2c1C1(CCCc3ccccc31)C1=C(CC(C)(C)CC1=O)N2 (stereo not drawn) . Does its GSK3β fold selectivity lie strictly below 3 fold?
Reply | Satisfied

Ask | Consider CC1(C)CC(=O)C2=C(C1)Nc1n[nH]c(C3CC(F)(F)C3)c1C2(C)c1ccccc1 (racemic) . Does its GSK3β fold selectivity lie strictly below 3 fold?
Reply | Not satisfied

Ask | Consider CC1(C)CC(=O)C2=C(C1)Nc1n[nH]c(-c3ccccc3)c1C2(C)c1ccccc1 (stereo not drawn) . Does its GSK3β fold selectivity lie strictly below 3 fold?
Reply | Satisfied

Ask | Consider CC1(C)CC(=O)C2=C(C1)Nc1n[nH]c(C(F)(F)F)c1C2(C)c1ccccc1 (racemic) [Compound 68] . Does its GSK3β fold selectivity lie strictly below 3 fold?
Reply | Satisfied

Ask | Consider CC1(C)CC(=O)C2=C(C1)Nc1n[nH]c(C3CC(F)(F)C3)c1[C@@]2(C)c1ccccc1 (stereo in doubt) . Does its GSK3β fold selectivity lie strictly below 3 fold?
Reply | Not satisfied

Ask | Consider Cc1[nH]nc2c1C(C)(c1cccc(C#N)c1)C1=C(CC(C)(C)CC1=O)N2 (racemic) . Does its GSK3β fold selectivity lie strictly below 3 fold?
Reply | Not satisfied

====

molecular target: GSK3α (Homo sapiens); experiment: biochemical
Sequence (P49840 whole entry): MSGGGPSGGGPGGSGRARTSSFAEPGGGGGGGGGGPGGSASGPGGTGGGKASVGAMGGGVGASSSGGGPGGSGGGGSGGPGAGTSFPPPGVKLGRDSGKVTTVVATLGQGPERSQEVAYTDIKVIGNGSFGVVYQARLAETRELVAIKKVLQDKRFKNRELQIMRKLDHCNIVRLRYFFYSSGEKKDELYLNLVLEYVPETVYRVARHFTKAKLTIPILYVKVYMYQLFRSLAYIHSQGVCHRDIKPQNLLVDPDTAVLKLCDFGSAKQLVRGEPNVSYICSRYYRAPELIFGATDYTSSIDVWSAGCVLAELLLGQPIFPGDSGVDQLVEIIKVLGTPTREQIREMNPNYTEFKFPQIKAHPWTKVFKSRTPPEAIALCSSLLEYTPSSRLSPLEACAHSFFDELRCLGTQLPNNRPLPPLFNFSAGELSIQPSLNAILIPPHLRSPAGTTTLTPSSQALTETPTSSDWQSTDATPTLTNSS
PROPERTY MEASURED: pIC50
Note on pIC50: it is the negative log10 of concentration, concentration in mol/L.

Ask | Look up and report pIC50, with GSK3α (Homo sapiens) as system, for CC1(C)CC(=O)C2=C(C1)Nc1n[nH]c(C3CC(F)(F)C3)c1[C@]2(C)c1ccccc1 (stereo in doubt)
Reply | 7.11

Ask | Look up and report pIC50, with GSK3α (Homo sapiens) as system, for CC1(C)CC(=O)C2=C(C1)Nc1n[nH]cc1[C@]2(C)c1cccc(F)c1 (stereo in doubt)
Reply | 6.33

Ask | Look up and report pIC50, with GSK3α (Homo sapiens) as system, for CN1C(=O)C2(C3=C(CC(C)(C)CC3=O)Nc3n[nH]c(CC(C)(C)C)c32)c2ccccc21 (stereo not shown)
Reply | 5.08

Ask | Look up and report pIC50, with GSK3α (Homo sapiens) as system, for CC[C@]1(c2cccc(C(C)(C)C)c2)C2=C(CC(C)(C)CC2=O)Nc2n[nH]cc21 (stereo in doubt)
Reply | 5.44

Ask | Look up and report pIC50, with GSK3α (Homo sapiens) as system, for CC[C@]1(c2cccc(F)c2)C2=C(CC(C)(C)CC2=O)Nc2n[nH]cc21 (stereo in doubt)
Reply | 5.02

Ask | Look up and report pIC50, with GSK3α (Homo sapiens) as system, for CC(C)c1[nH]nc2c1[C@H](c1ccccc1Cl)C1=C(CC(C)(C)CC1=O)N2
Reply | 5.53
